The reader will find reported log10 of IC50 values listed item by item below.
# study target: Polyunsaturated fatty acid 5-lipoxygenase (Homo sapiens, UniProt P09917)
# Sequence (P09917 whole entry): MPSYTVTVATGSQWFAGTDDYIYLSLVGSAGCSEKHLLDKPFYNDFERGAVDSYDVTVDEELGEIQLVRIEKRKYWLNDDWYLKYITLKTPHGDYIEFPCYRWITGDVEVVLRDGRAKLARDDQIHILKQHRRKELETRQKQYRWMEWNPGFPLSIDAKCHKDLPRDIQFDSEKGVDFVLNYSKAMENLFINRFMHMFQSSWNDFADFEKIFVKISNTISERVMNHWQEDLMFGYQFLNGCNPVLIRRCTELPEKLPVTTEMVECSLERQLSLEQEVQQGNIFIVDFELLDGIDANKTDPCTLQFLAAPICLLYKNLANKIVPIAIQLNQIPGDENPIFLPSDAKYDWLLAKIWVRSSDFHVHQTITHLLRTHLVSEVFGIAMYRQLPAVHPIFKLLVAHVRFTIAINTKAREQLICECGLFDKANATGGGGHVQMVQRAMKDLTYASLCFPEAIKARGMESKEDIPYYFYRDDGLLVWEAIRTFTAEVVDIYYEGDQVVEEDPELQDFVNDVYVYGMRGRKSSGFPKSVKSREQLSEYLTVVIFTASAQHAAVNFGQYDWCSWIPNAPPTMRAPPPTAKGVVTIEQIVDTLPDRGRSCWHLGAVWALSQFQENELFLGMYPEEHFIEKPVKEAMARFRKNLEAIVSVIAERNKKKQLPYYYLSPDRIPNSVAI
# assay explanation: In vitro inhibition of LTB4 biosynthesis in [Ca(2+)]-ionophore-activated human polymorphonuclear leukocytes
# Format: functional
Scale: decimal log of IC50, IC50 in nM.

Would you please look over these solved cases?
>>> value("CC1Cc2c(OCc3ccccn3)ccc3c2c(c(CC(C)(C)C(=O)O)n3Cc2ccc(Cl)cc2)S1 (centres undefined)")
1.54
>>> value("CC1Cc2c(OCc3ccc(-c4ccccc4)cn3)ccc3c2c(c(C(=O)O)n3Cc2ccc(Cl)cc2)S1 (centres undefined)")
1.99
>>> value("CSc1c(CC(C)(C)C(=O)O)n(Cc2ccc(Cl)cc2)c2ccc(OCc3ccc(-c4ccccc4)cn3)cc12")
2.23

Param item = CC1Cc2c(OCc3ccc(-c4ccccc4)cn3)ccc3c2c(c(CC(C)(C)CC(=O)NS(C)(=O)=O)n3Cc2ccc(Cl)cc2)S1 (centres undefined) ; retrieve measured log10 of IC50.
1.04

Item: CC1(C)Cc2c(OCc3ccc(-c4ccccc4)cn3)ccc3c2c(c(CC(C)(C)C(=O)O)n3Cc2ccc(Cl)cc2)S1
1.94
